B1: Prolactin, P01236 (parent)
chain: MNIKGSPWKGSLLLLLVSNLLLCQSVAPLPICPGGAARCQVTLRDLFDRAVVLSHYIHNLSSEMFSEFDKRYTHGRGFITKAINSCHTSSLATPEDKEQAQQMNQKDFLSLIVSILRSWNEPLYHLVTEVRGMQEAPEAILSKAVEIEEQTKRLLEGMELIVSQVHPETKENEIYPVWSGLPSLQMADEESRLSAYYNLLHCLRRDSHKIDNYLKLLKCRIIHNNNC

Variants of: B1
DETAILS: Homo sapiens; pH 7.4; Thermal; CD; NaH2PO4 100mM; structure 1RW5; whole UniProt chain shown
Provide the recorded Tm for the entries that follow.
Give the figure together with its unit, number first.

INSERT INTO measurements (variant_notation, reported_measurement) VALUES
  ('G157V', '101 °C');

Hi! Can you tell me Tm for each of these variants?
1. G157R
2. G157P
3. G157N
4. G157L
5. G157Y
6. G157F
7. G157D

1: 79 °C; 2: 70.8 °C; 3: 89.8 °C; 4: 96.8 °C; 5: 96.8 °C; 6: 93.8 °C; 7: 84.2 °C

Each recorded value in this set is attributed to FireProtDB (doi:10.1074/jbc.m704364200).
